# Test system: ISH467-N2C0 recombinant β-galactoside-α2,3-sialyltransferase
# TEST DESCRIPTION: Acceptor substrate specificity of recombinant β-galactoside-α2,3-sialyltransferase (mono-, di-, trisaccharides)
# Type: biochemical, Photobacterium phosphoreum
# CONDITION DESCRIPTION: Table 16: activity toward lactose set to 100; 20° C., 14 hours
Please go through the items and note down their ISH467-N2C0 Sialyltransferase activity Relative activity (%).
Give just the numeric value; % need not be written.

query: Report ISH467-N2C0 Sialyltransferase activity Relative activity (%) under test system ISH467-N2C0 recombinant β-galactoside-α2,3-sialyltransferase for CO[C@@H]1O[C@H](CO)[C@@H](O)[C@H](O)[C@H]1O [Methylβglucopyranoside, methyl-β-D-glucopyranoside] .
result: 46

query: Report ISH467-N2C0 Sialyltransferase activity Relative activity (%) under test system ISH467-N2C0 recombinant β-galactoside-α2,3-sialyltransferase for CO[C@@H]1O[C@H](CO)[C@H](O)[C@H](O)[C@H]1O [Methylβgalactopyranoside, methyl-β-D-galactopyranoside] .
result: 116

query: Report ISH467-N2C0 Sialyltransferase activity Relative activity (%) under test system ISH467-N2C0 recombinant β-galactoside-α2,3-sialyltransferase for CC(=O)N[C@H]1C(O)O[C@H](CO)[C@H](O)[C@@H]1O (stereo partly shown) [N-Acetylgalactosamine, N-acetylgalactosamine] .
result: 69

query: Report ISH467-N2C0 Sialyltransferase activity Relative activity (%) under test system ISH467-N2C0 recombinant β-galactoside-α2,3-sialyltransferase for CO[C@H]1O[C@H](CO)[C@@H](O)[C@H](O)[C@@H]1O [Methylαmannopyranoside, methyl-α-D-mannopyranoside] .
result: 71

====

Please go through the items and note down their Amount of transferred sialic acid.
# Test system: α2,3-sialyltransferase derived from strain JT-ISH-467
# TEST DESCRIPTION: Sialic acid transfer to monosaccharides and disaccharides by partially purified α2,3-sialyltransferase (CMP-14C-NeuAc donor, radioactivity of column eluate)
# Format: biochemical, Photobacterium phosphoreum
# CONDITION DESCRIPTION: 25° C., 4 hours; acceptor 10 μmol (200 mM); CMP-14C-NeuAc 400 nmol; sialyltransferase 0.13 mU; NaCl 500 mM
Give just the numeric value; nmol need not be written.

query: Tell me its Amount of transferred sialic acid given CC(=O)N[C@H]1C(O)O[C@H](CO)[C@H](O)[C@@H]1O (stereo partly drawn) as the entry.
result: 37.8

query: Tell me its Amount of transferred sialic acid given CO[C@H]1O[C@H](CO)[C@H](O)[C@H](O)[C@H]1O [Methylαgalactopyranoside, methyl-α-D-galactopyranoside] as the entry.
result: 60.0

====

Please go through the items and note down their ISH224-N1C0 Sialyltransferase activity Relative activity (%).
# Test system: ISH224-N1C0 recombinant β-galactoside-α2,3-sialyltransferase
# TEST DESCRIPTION: Acceptor substrate specificity of recombinant β-galactoside-α2,3-sialyltransferase (mono-, di-, trisaccharides)
# Assay type: biochemical, Photobacterium sp.
# CONDITION DESCRIPTION: Table 16: activity toward lactose set to 100; 20° C., 14 hours
Give just the numeric value; % need not be written.

query: Tell me its ISH224-N1C0 Sialyltransferase activity Relative activity (%) given CC(=O)N[C@H]1C(O)O[C@H](CO)[C@@H](O[C@@H]2O[C@H](CO)[C@H](O)[C@H](O)[C@H]2O)[C@@H]1O (stereo partly shown) as the entry.
result: 115

query: Tell me its ISH224-N1C0 Sialyltransferase activity Relative activity (%) given CO[C@@H]1O[C@H](CO)[C@H](O)[C@H](O)[C@H]1O [Methylβgalactopyranoside, methyl-β-D-galactopyranoside] as the entry.
result: 105

query: Tell me its ISH224-N1C0 Sialyltransferase activity Relative activity (%) given CO[C@H]1O[C@H](CO)[C@@H](O)[C@H](O)[C@@H]1O [Methylαmannopyranoside, methyl-α-D-mannopyranoside] as the entry.
result: 56

query: Tell me its ISH224-N1C0 Sialyltransferase activity Relative activity (%) given CO[C@H]1O[C@H](CO)[C@@H](O)[C@H](O)[C@H]1O [Methylαglucopyranoside, methyl-α-D-glucopyranoside] as the entry.
result: 51

query: Tell me its ISH224-N1C0 Sialyltransferase activity Relative activity (%) given CO[C@@H]1O[C@H](CO)[C@@H](O)[C@H](O)[C@H]1O [Methylβglucopyranoside, methyl-β-D-glucopyranoside] as the entry.
result: 43

query: Tell me its ISH224-N1C0 Sialyltransferase activity Relative activity (%) given CC(=O)N[C@H]1C(O)O[C@H](CO)[C@H](O)[C@@H]1O (stereo partly shown) as the entry.
result: 69

query: Tell me its ISH224-N1C0 Sialyltransferase activity Relative activity (%) given CO[C@H]1O[C@H](CO)[C@H](O)[C@H](O)[C@H]1O [Methylαgalactopyranoside, methyl-α-D-galactopyranoside] as the entry.
result: 113

query: Tell me its ISH224-N1C0 Sialyltransferase activity Relative activity (%) given OC[C@H]1O[C@@H](O[C@H]2[C@H](O)[C@@H](O)C(O)O[C@@H]2CO)[C@H](O)[C@@H](O)[C@H]1O (stereo partly shown) as the entry.
result: 100

query: Tell me its ISH224-N1C0 Sialyltransferase activity Relative activity (%) given CC(=O)N[C@H]1C(O)O[C@H](CO)[C@@H](O)[C@@H]1O (stereo partly shown) as the entry.
result: 68

query: Tell me its ISH224-N1C0 Sialyltransferase activity Relative activity (%) given `CO[C@@H]1O[C@H](CO)[C@@H](O)[C@H](O[C@@H]2O[C@H](CO)[C@H](O)[C@H](O)[C@H]2O)[C@H]1NC(C)=O` as the entry.
result: 111

====

# System: ISH467-N2C0 recombinant β-galactoside-α2,3-sialyltransferase
# TEST DESCRIPTION: Acceptor substrate specificity of recombinant β-galactoside-α2,3-sialyltransferase (mono-, di-, trisaccharides)
# Assay type: biochemical, Photobacterium phosphoreum
# CONDITION DESCRIPTION: Table 17: activity toward lactose set to 100; 30° C., 0.5 minutes or 2 minutes
Labelling: ISH467-N2C0 Sialyltransferase activity Relative activity (%) reported below 60% becomes T; at or above becomes F.

query: Find out if reported ISH467-N2C0 Sialyltransferase activity Relative activity (%) for CO[C@@H]1O[C@H](CO)[C@@H](O)[C@H](O)[C@@H]1O [Methylβmannopyranoside, methyl-β-D-mannopyranoside] is less than 60%
result: F

query: Find out if reported ISH467-N2C0 Sialyltransferase activity Relative activity (%) for CO[C@@H]1O[C@H](CO)[C@H](O)[C@H](O)[C@H]1O [Methylβgalactopyranoside, methyl-β-D-galactopyranoside] is less than 60%
result: F

query: Find out if reported ISH467-N2C0 Sialyltransferase activity Relative activity (%) for CO[C@H]1O[C@H](C)[C@H](O)[C@H](O)[C@H]1O [Methylαfucopyranoside, methyl-α-D-fucopyranoside] is less than 60%
result: T

query: Find out if reported ISH467-N2C0 Sialyltransferase activity Relative activity (%) for CO[C@@H]1O[C@H](CO)[C@@H](O)[C@H](O)[C@H]1O [Methylβglucopyranoside, methyl-β-D-glucopyranoside] is less than 60%
result: T

query: Find out if reported ISH467-N2C0 Sialyltransferase activity Relative activity (%) for `CO[C@@H]1O[C@H](CO)[C@@H](O)[C@H](O[C@@H]2O[C@H](CO)[C@H](O)[C@H](O)[C@H]2O)[C@H]1NC(C)=O` is less than 60%
result: F

query: Find out if reported ISH467-N2C0 Sialyltransferase activity Relative activity (%) for CC(=O)N[C@H]1C(O)O[C@H](CO)[C@H](O)[C@@H]1O (stereo partly drawn) [N-Acetylgalactosamine, N-acetylgalactosamine] is less than 60%
result: T

====

# Tested on: α2,3-sialyltransferase derived from strain JT-ISH-467
# TEST DESCRIPTION: Sialic acid transfer to monosaccharides and disaccharides by partially purified α2,3-sialyltransferase (CMP-14C-NeuAc donor, radioactivity of column eluate)
# Assay type: biochemical, Photobacterium phosphoreum
# CONDITION DESCRIPTION: 25° C., 4 hours; acceptor 10 μmol (200 mM); CMP-14C-NeuAc 400 nmol; sialyltransferase 0.13 mU; NaCl 500 mM
Please go through the items and note down their Amount of transferred sialic acid.
Give just the numeric value; nmol need not be written.

query: Tell me its Amount of transferred sialic acid given CO[C@@H]1O[C@H](CO)[C@H](O)[C@H](O)[C@H]1O [Methylβgalactopyranoside, methyl-β-D-galactopyranoside] as the entry.
result: 50.2

query: Tell me its Amount of transferred sialic acid given OC[C@H]1O[C@@H](O[C@H]2[C@H](O)[C@@H](O)C(O)O[C@@H]2CO)[C@H](O)[C@@H](O)[C@H]1O (stereo partly drawn) as the entry.
result: 57.9

query: Tell me its Amount of transferred sialic acid given `CO[C@@H]1O[C@H](CO)[C@@H](O)[C@H](O[C@@H]2O[C@H](CO)[C@H](O)[C@H](O)[C@H]2O)[C@H]1NC(C)=O` as the entry.
result: 71.1
